- assayTarget: Nonstructural protein 5A (Hepatitis C virus) (UniProt Q5L478)
- Sequence (Q5L478 as listed by the source): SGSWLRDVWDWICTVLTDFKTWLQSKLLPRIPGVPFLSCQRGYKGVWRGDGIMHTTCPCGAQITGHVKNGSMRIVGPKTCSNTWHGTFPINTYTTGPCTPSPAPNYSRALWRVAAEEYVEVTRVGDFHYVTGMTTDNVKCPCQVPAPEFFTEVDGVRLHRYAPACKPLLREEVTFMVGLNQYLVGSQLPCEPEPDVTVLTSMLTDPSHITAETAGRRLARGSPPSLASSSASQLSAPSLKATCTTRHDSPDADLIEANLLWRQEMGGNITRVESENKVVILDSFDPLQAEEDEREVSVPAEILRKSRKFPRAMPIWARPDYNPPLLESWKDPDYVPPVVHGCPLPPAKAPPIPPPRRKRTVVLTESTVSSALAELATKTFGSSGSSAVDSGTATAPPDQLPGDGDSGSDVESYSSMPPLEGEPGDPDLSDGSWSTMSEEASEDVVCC
- protocol: Inhibition of HCV GT2a NS5A assessed as suppression of replicon RNA level by real-time PCR analysis
- assayConditions: Hepatitis C virus subtype 2a
Readings of EC90 for the listed molecules
measurementLabel: EC90 (pM)

INSERT INTO measurements (molecule, measurementlabel, measurementunits, number) VALUES
  ('COC(=O)N[C@H](C(=O)N1CCC[C@H]1c1ncc(-c2ccc3c(c2)O[C@@H](c2ccccc2)n2c-3c(F)c3cc(-c4cnc([C@@H]5CCCN5C(=O)[C@@H](NC(=O)OC)C(C)C)[nH]4)ccc32)[nH]1)C(C)C', 'EC90', 'pM', 4),
  ('COC(=O)N[C@H](C(=O)N1CCC[C@H]1c1ncc(-c2cc(F)c3c(c2)O[C@@H](c2ccccc2)n2c-3cc3cc(-c4cnc([C@@H]5CCCN5C(=O)[C@@H](NC(=O)OC)C(C)C)[nH]4)ccc32)[nH]1)C(C)C', 'EC90', 'pM', 150),
  ('COC(=O)N[C@H](C(=O)N1CCC[C@H]1c1ncc(-c2ccc3c(c2)OCn2c-3cc3cc(-c4cnc([C@@H]5CCCN5C(=O)[C@@H](NC(=O)OC)C(C)C)[nH]4)c(F)cc32)[nH]1)C(C)C', 'EC90', 'pM', 20),
  ('COC(=O)N[C@H](C(=O)N1C[C@H](F)C[C@H]1c1ncc(-c2ccc3c(c2)OC(c2ccccc2)n2c-3c(F)c3cc(-c4cnc([C@@H]5C[C@@H](F)CN5C(=O)[C@@H](NC(=O)OC)C(C)C)[nH]4)ccc32)[nH]1)C(C)C (mixture of isomers)', 'EC90', 'pM', 300),
  ('COC(=O)N[C@H](C(=O)N1CCC[C@H]1c1ncc(-c2ccc3c(c2)OCn2c-3c(C3CC3)c3cc(-c4cnc([C@@H]5CCCN5C(=O)[C@@H](NC(=O)OC)C(C)C)[nH]4)ccc32)[nH]1)C(C)C', 'EC90', 'pM', 5),
  ('COC(=O)N[C@H](C(=O)N1C[C@H](F)C[C@H]1c1ncc(-c2cc(F)c3c(c2)OC(c2ccccc2)n2c-3cc3cc(-c4cnc([C@@H]5C[C@@H](F)CN5C(=O)[C@@H](NC(=O)OC)C(C)C)[nH]4)ccc32)[nH]1)C(C)C (mixture of isomers)', 'EC90', 'pM', 200),
  ('COC(=O)N[C@H](C(=O)N1CCC[C@H]1c1ncc(-c2ccc3c(c2)OCn2c-3cc3cc(-c4cnc([C@@H]5CCCN5C(=O)[C@@H](NC(=O)OC)C(C)C)[nH]4)cc(F)c32)[nH]1)C(C)C', 'EC90', 'pM', 100),
  ('COC(=O)N[C@H](C(=O)N1CCC[C@H]1c1ncc(-c2cc(F)c3c(c2)O[C@@H](c2ccccc2)n2c-3c(Cl)c3cc(-c4cnc([C@@H]5CCCN5C(=O)[C@@H](NC(=O)OC)C(C)C)[nH]4)ccc32)[nH]1)C(C)C', 'EC90', 'pM', 30),
  ('COC(=O)N[C@H](C(=O)N1CCC[C@H]1c1ncc(-c2ccc3c(c2)cc2n3[C@H](c3ccccc3)Oc3cc(-c4cnc([C@@H]5CCCN5C(=O)[C@@H](NC(=O)OC)C(C)C)[nH]4)c(F)cc3-2)[nH]1)C(C)C', 'EC90', 'pM', 3);
